Each record here notes measured IC50.
Target: recombinant human Bcl-2 D103Y protein (Homo sapiens (Human), UniProt P10415, D103Y)
Sequence (P10415 whole entry D103Y): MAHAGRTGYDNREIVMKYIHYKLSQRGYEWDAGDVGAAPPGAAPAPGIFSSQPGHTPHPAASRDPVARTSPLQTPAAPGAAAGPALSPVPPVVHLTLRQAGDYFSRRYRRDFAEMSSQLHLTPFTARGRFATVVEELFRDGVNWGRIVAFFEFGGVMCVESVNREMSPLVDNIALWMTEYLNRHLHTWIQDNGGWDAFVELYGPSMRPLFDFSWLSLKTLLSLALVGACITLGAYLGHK
Experiment: Bcl-2-D103Y Biochemical Assay (TR-FRET)
Conditions: TR-FRET, FITC labeled Bak peptide

- Molecule: "CC(C)c1ccccc1C1CN(Cc2ccc(C#N)cc2)CCN1C1CC2(CCN(c3ccc(C(=O)NS(=O)(=O)c4ccc(NC[C@H]5CC[C@](C)(O)CC5)c([N+](=O)[O-])c4)c(Oc4cnc5[nH]ccc5c4)c3)CC2)C1 (stereo partly shown)"
  IC50 / nM: 1.7
- Molecule: "CC(C)c1ccccc1C1CN(C2COC2)CCN1C1CC2(CCN(c3ccc(C(=O)NS(=O)(=O)c4ccc(NC[C@H]5CC[C@](C)(O)CC5)c([N+](=O)[O-])c4)c(Oc4cnc5[nH]ccc5c4)c3)CC2)C1 (stereo partly shown) [Example 6]"
  IC50 / nM: 0.18
- Molecule: "COc1cc(CN2CCN(C3CC4(C3)CN(c3ccc(C(=O)NS(=O)(=O)c5ccc(NC[C@H]6CC[C@](C)(O)CC6)c([N+](=O)[O-])c5)c(Oc5cnc6[nH]ccc6c5)c3)C4)[C@H](c3ccccc3C(C)C)C2)ccc1OC1CC1"
  IC50 / nM: 0.09
- Molecule: "COc1cc(CN2CCN(C3CC4(C3)CN(c3ccc(C(=O)NS(=O)(=O)c5ccc(NC[C@H]6CC[C@](C)(O)CC6)c([N+](=O)[O-])c5)c(Oc5cnc6[nH]cc(F)c6c5)c3)C4)[C@H](c3ccccc3C(C)C)C2)ccc1F"
  IC50 / nM: 0.19
- Molecule: "COc1cc(CN2CCN(C3CC4(CCN(c5ccc(C(=O)NS(=O)(=O)c6ccc(NC[C@H]7CC[C@](C)(O)CC7)c([N+](=O)[O-])c6)c(Oc6cnc7[nH]ccc7c6)c5)CC4)C3)[C@H](c3ccccc3C(C)C)C2)ccc1C(F)F"
  IC50 / nM: 0.43
- Molecule: "CC(C)c1ccccc1C1CN(Cc2cccc(F)c2)CCN1C1CC2(CCN(c3ccc(C(=O)NS(=O)(=O)c4ccc(NC[C@H]5CC[C@](C)(O)CC5)c([N+](=O)[O-])c4)c(Oc4cnc5[nH]ccc5c4)c3)CC2)C1 (stereo partly shown)"
  IC50 / nM: 0.83
- Molecule: "[2H]C([2H])([2H])Oc1ccc(CN2CCN(C3CC4(C3)CN(c3ccc(C(=O)NS(=O)(=O)c5ccc(NC[C@H]6CC[C@](C)(O)CC6)c([N+](=O)[O-])c5)c(Oc5cnc6[nH]cc(F)c6c5)c3)C4)[C@H](c3ccccc3C(C)C)C2)cc1"
  IC50 / nM: 0.11
